All figures here come from paper PMC8236452.

METHOD: Plasma pharmacokinetics after a single oral dose of rucaparib 600 mg in patients with advanced solid tumors, by hepatic function group
TEST SETTINGS: human, plasma, po, 600 mg, AUC0–inf, Mean (SD), Child–Pugh mild hepatic impairment; single oral rucaparib 600 mg
PROPERTY MEASURED: AUC(0-inf) (ng·h/mL)
Express your answer in ng·h/mL, writing the number without its unit.

Please fill in: AUC(0-inf) reported for CNCc1ccc(-c2[nH]c3cc(F)cc4c3c2CCNC4=O)cc1 [rucaparib] = 11900

* * *

METHOD: Plasma pharmacokinetics after a single oral dose of rucaparib 600 mg in patients with advanced solid tumors, by hepatic function group
TEST SETTINGS: human, plasma, po, 600 mg, Vz/F, Mean (SD), Child–Pugh severe hepatic impairment; single oral rucaparib 600 mg
PROPERTY MEASURED: Vd/F (L)
Express your answer in L, writing the number without its unit.

Please fill in: Vd/F reported for CNCc1ccc(-c2[nH]c3cc(F)cc4c3c2CCNC4=O)cc1 = 2700
